This collection of values is drawn from patent US10947210B2.

target: HCV RNA-dependent RNA polymerase (NS5B) (Hepatitis C virus genotype 1b (isolate BK) (HCV), UniProt P26663); experiment: RNA-Dependent RNA HCV NS5B (polymerase) Assay and IC50 Determination; format: biochemical; conditions: purified HCV NS5B polymerase, polyA:U16 substrate, 32P-UTP incorporation; read-out: IC50
Sequence (P26663 2420-3010): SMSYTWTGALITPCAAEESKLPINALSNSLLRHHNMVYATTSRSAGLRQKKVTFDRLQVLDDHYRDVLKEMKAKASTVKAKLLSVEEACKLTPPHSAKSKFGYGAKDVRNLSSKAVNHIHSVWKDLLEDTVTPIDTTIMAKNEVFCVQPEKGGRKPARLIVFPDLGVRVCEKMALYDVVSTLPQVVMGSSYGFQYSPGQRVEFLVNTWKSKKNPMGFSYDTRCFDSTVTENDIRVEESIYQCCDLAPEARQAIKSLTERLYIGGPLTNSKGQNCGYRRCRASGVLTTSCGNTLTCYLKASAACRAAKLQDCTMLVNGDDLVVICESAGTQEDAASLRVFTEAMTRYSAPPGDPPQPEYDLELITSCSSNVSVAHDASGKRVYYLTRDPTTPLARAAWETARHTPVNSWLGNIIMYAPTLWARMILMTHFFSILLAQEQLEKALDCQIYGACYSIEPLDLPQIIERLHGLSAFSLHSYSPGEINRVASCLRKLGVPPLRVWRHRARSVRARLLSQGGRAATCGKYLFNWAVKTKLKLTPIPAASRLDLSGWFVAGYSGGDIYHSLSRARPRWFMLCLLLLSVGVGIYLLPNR
ASSAY_READOUT: IC50

These recorded examples may help you get a feel for the data.
CNC(=O)c1c(-c2ccc(F)cc2)oc2cc(N(CCOCCOCCCc3cccc(C(=O)CC(=O)C(=O)O)c3)S(C)(=O)=O)c(C3CC3)cc12 ... > 1000 nM
CNC(=O)c1c(-c2ccc(F)cc2)oc2cc(N(CCCCCOCCCC(C)C(=O)O)S(C)(=O)=O)c(C3CC3)cc12 (stereo not drawn) ... < 100 nM

Looking for the measured IC50 of CNC(=O)c1c(-c2ccc(F)cc2)oc2cc(N(CC(=O)NCC(=O)NCCCCC(=O)O)S(C)(=O)=O)c(C3CC3)cc12 , can you help? > 1000 nM

###

biological target: HCV RNA-dependent RNA polymerase (NS5B) (Hepatitis C virus genotype 1b (isolate BK) (HCV), UniProt P26663); assay: RNA-Dependent RNA HCV NS5B (polymerase) Assay and IC50 Determination; assay type: biochemical; conditions: purified HCV NS5B polymerase, polyA:U16 substrate, 32P-UTP incorporation; read-out: IC50
ASSAY_READOUT: IC50

Observe how each entry below is paired with its result.
CNC(=O)c1c(-c2ccc(F)cc2)oc2cc(N(CCOCCCCc3ccc(C(=O)OC)cc3)S(C)(=O)=O)c(C3CC3)cc12 ... 100 to 1000 nM
CNC(=O)c1c(-c2ccc(F)cc2)oc2cc(N(CCOCCOCCOCCOCc3ccc(C(=O)/C=C(\O)C(=O)O)cc3)S(C)(=O)=O)c(C3CC3)cc12 [Compound 02-10H] ... > 1000 nM
CNC(=O)c1c(-c2ccc(F)cc2)oc2cc(N(CCOCCOCc3ccc(F)c(C(=O)NO)c3)S(C)(=O)=O)c(C3CC3)cc12 [Compound 17A-8B] ... > 1000 nM
CNC(=O)c1c(-c2ccc(F)cc2)oc2cc(N(CCCCCOCCCCC(=O)O)S(C)(=O)=O)c(C3CC3)cc12 ... < 100 nM
CNC(=O)c1c(-c2ccc(F)cc2)oc2cc(N(CCOCCCCOc3cccc(C(=O)CC(=O)C(=O)O)c3)S(C)(=O)=O)c(C3CC3)cc12 ... > 1000 nM

Now for another entry.
// IC50 lookup, key: CNC(=O)c1c(-c2ccc(F)cc2)oc2cc(N(CC(=O)NCC(=O)NCCCCC(=O)OC)S(C)(=O)=O)c(C3CC3)cc12 > 1000 nM

###

biological target: HCV RNA-dependent RNA polymerase (NS5B) (Hepatitis C virus genotype 1b (isolate BK) (HCV)); test: RNA-Dependent RNA HCV NS5B (polymerase) Assay and IC50 Determination; format: biochemical; conditions: purified HCV NS5B polymerase, polyA:U16 substrate, 32P-UTP incorporation; read-out: IC50
pIC50: −log10 of the molar value.
ASSAY_READOUT: pIC50

Below, each entry is followed by its recorded pIC50 result.
CNC(=O)c1c(-c2ccc(F)cc2)oc2cc(N(CCOCCOCCOCc3ccccc3C(=O)O)S(C)(=O)=O)c(C3CC3)cc12 [Compound 06-7D] ... 6.00 to 7.00
CNC(=O)c1c(-c2ccc(F)cc2)oc2cc(N(CCOCCOCCOCCOCCOCc3cccc(C(C)=O)c3)S(C)(=O)=O)c(C3CC3)cc12 [Compound 02-8D] ... < 6.00

# context switch: different compound, same pIC50
Look up pIC50 for this compound: CNC(=O)c1c(-c2ccc(F)cc2)oc2cc(N(CCOCCOCc3cccc(C(=O)OC)c3)S(C)(=O)=O)c(C3CC3)cc12 [Compound 06-6C] < 6.00
